- target under test: p110γ (Homo sapiens, UniProt P48736)
- Sequence (P48736 whole entry): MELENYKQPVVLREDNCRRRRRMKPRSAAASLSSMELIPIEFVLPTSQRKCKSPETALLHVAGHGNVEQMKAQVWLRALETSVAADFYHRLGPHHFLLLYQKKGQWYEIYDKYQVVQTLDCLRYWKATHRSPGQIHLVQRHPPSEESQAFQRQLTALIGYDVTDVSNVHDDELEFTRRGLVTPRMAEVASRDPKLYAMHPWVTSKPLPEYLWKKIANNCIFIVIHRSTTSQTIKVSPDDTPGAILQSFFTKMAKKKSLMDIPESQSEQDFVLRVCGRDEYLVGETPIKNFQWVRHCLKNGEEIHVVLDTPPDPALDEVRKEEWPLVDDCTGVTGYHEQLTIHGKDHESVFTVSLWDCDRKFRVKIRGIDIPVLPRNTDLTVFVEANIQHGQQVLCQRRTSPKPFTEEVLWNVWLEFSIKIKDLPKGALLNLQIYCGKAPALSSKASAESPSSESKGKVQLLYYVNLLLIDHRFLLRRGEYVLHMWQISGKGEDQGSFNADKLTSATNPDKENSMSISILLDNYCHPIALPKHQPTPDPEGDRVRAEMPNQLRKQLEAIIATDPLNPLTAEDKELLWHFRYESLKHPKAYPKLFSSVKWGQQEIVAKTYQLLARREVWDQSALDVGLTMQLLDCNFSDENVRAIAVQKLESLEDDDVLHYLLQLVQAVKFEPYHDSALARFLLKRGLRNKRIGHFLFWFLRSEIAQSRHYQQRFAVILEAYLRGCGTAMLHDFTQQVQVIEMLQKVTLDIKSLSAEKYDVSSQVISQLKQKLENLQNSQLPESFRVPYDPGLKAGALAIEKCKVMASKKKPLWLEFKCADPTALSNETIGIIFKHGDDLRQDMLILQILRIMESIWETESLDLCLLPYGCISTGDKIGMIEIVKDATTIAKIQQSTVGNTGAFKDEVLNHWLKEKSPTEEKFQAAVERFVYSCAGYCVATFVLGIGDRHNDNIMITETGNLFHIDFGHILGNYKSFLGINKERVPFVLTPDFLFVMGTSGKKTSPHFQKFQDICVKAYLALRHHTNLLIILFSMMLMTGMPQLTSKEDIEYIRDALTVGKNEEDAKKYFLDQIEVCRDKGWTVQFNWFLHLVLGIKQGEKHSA
- test name: Transcreener KINASE Assay, kinase inhibition of p110γ
- Type: biochemical
- assay setup: 1 uM test compound
PI3Kγ IH % @ 1 uM by entry:
Form entry: value (%) — number only.

Some compounds with known PI3Kγ IH % @ 1 uM results, for comparison:
CS(=O)(=O)c1c[nH]c2ncnc(N3CC[C@H]3c3nn4ccc(Cl)c4c(=O)n3-c3ccccc3)c12 ... 82.3
Nc1nc(N2CCC[C@H]2c2nn3ccc(Cl)c3c(=O)n2-c2ccccc2)c2ncccc2n1 ... 69.5

Next:
Note to self: PI3Kγ IH % @ 1 uM recorded for Cc1ccn2cc(C(C)Nc3ncnc4[nH]cc(C#N)c34)n(-c3ccccc3)c(=O)c12 (stereo not shown) was 93.5

====

- target under test: p110γ (Homo sapiens)
Listed below: pIC50 values for each entry.
// scale note: pIC50 = -log10(conc_M); give the bare number

These recorded examples may help you get a feel for the data.
CC(Nc1nc(N)ncc1C#N)c1cn2ccc(Cl)c2c(=O)n1-c1ccccc1 (centres unmarked) ... 8.70
O=c1c2c(Cl)ccn2nc([C@@H]2CCCN2c2ncnc3[nH]cnc23)n1C1CCC1 ... 6.81
O=c1c2c(Cl)ccn2nc([C@@H]2CCN2c2ncnc3[nH]cc(F)c23)n1-c1ccccc1 ... 6.76
N#Cc1cnc(N)nc1N1C[C@@H](F)C[C@H]1c1nn2ccc(F)c2c(=O)n1-c1ccccc1 ... 7.74

# ---- query compound ----
So for O=c1c2c(Cl)ccn2nc([C@@H]2CCN2c2ncnc3[nH]ccc23)n1-c1ccccc1 , the logged pIC50 turned out to be 6.41

====

Overview of reported PI3Kγ IH % @ 1 uM across a group of compounds:
- target under test: p110γ (Homo sapiens, UniProt P48736)
- test name: Transcreener KINASE Assay, kinase inhibition of p110γ
- Format: biochemical
- assay setup: 1 uM test compound
Your answer should be a plain number; it is taken to be in %.

Here are 2 compounds together with their reported answers.
C=Cc1ccn2nc([C@@H]3CCCN3c3ncnc4[nH]cc(C#N)c34)n(-c3ccccc3)c(=O)c12 [Compound 292] ... 94.7
O=c1c2c(C3CC3)ccn2nc([C@@H]2CCCN2c2ncnc3[nH]cnc23)n1-c1ccccc1 [Compound 51] ... 89.1

Record summary for CC(Nc1ncnc(N)c1C#N)c1cn2ccc(Cl)c2c(=O)n1-c1ccc(F)cc1 (centres unmarked) [Compound 79] : reported PI3Kγ IH % @ 1 uM = 91.6

Quick note, PI3Kγ IH % @ 1 uM for Cc1ccn2cc(C(C)Nc3ncnc(N)c3C#N)n(-c3ccccc3)c(=O)c12 (centres unmarked) [Compound 90] landed at 95.7

Record C=Cc1ccn2nc([C@@H]3CCN3c3ncnc4[nH]cc(C#N)c34)n(-c3ccccc3)c(=O)c12 [Compound 291] . Reported PI3Kγ IH % @ 1 uM: 91.1

====

- target under test: p110δ/p85α (Homo sapiens)
- test name: Transcreener KINASE Assay, kinase inhibition of p110δ/p85α
- Type: biochemical
- assay setup: 1 uM test compound
parameter: PI3Kδ IH % @ 1 uM (%)
Unit % implied. Number only.

Observed PI3Kδ IH % @ 1 uM, p110δ/p85α (Homo sapiens), N#Cc1c[nH]c2ncnc(N3CC[C@H]3c3nn4ccc(Cl)c4c(=O)n3Cc3ccccn3)c12 : 69.0

Given the compound COc1nc(N)nc(N2CC[C@H]2c2nn3ccc(Cl)c3c(=O)n2-c2ccccc2)c1C#N and test system p110δ/p85α (Homo sapiens), the measured PI3Kδ IH % @ 1 uM is 87.2

For the compound Cc1nc(N)nc(N2C[C@H](C)C2c2nn3ccc(Cl)c3c(=O)n2-c2ccc(F)cc2)c1C#N (some centres unmarked) , the measured PI3Kδ IH % @ 1 uM on p110δ/p85α (Homo sapiens) was 98.1

====

- target under test: p110β/p85α (Homo sapiens)
- test name: Transcreener KINASE Assay, kinase inhibition of p110β/p85α
- Format: biochemical
- assay setup: 1 uM test compound
Recorded PI3Kβ IH % @ 1 uM by entry
Please answer in the form of a number followed by its unit of measurement.

Observe how each entry below is paired with its result.
CN(C)C(=O)c1c[nH]c2ncnc(N3CCC[C@H]3c3nn4ccc(Cl)c4c(=O)n3-c3ccccc3)c12 ... 45.1%
C[C@H]1CN(c2nc(N)nc(N)c2C#N)[C@@H]1c1nn2ccc(Cl)c2c(=O)n1-c1ccc(F)cc1 ... 93.6%
O=c1c2c(Cl)ccn2nc([C@@H]2CCCN2c2ncnc3[nH]cnc23)n1-c1ccccc1 ... 88.7%
C=Cc1ccn2nc([C@@H]3CCCN3c3ncnc4[nH]cc(C#N)c34)n(-c3ccccc3)c(=O)c12 ... 45.1%
CC(Nc1ncnc2[nH]cc(C#N)c12)c1cn2ccc(Cl)c2c(=O)n1-c1cccc(F)c1 (stereo not drawn) [Compound 76] ... 82.0%
CC(Nc1ncnc(N)c1C#N)c1cn2ccc(Cl)c2c(=O)n1-c1cc(F)cc(F)c1 (stereo not drawn) ... 79.0%
Cc1nc(N)nc(N2CCC2c2nn3ccc(Cl)c3c(=O)n2-c2ccccn2)c1C#N (stereo not drawn) ... 80.3%
N#C[C@H]1C[C@@H](c2nn3ccc(Cl)c3c(=O)n2-c2ccccc2)N(c2ncnc3[nH]cnc23)C1 ... 94.8%
N#Cc1cnc(N)nc1N1C[C@@H](F)C[C@H]1c1nn2ccc(F)c2c(=O)n1-c1ccccc1 ... 59.6%
O=c1c2c(Cl)ccn2nc([C@@H]2C[C@H](O)CN2c2ncnc3[nH]cnc23)n1-c1ccccc1 ... 88.8%

PI3Kβ IH % @ 1 uM on p110β/p85α (Homo sapiens) for N#Cc1c[nH]c2ncnc(N3C[C@H](O)C[C@H]3c3nn4ccc(Cl)c4c(=O)n3-c3ccccc3)c12 is 92.1%

Value sought: PI3Kβ IH % @ 1 uM, system p110β/p85α (Homo sapiens), item CC(Nc1ncnc2[nH]cnc12)c1cc2ccc(Cl)n2c(=O)n1-c1cccc(F)c1 (stereo not drawn) . Result: 71.3%

Field PI3Kβ IH % @ 1 uM (system: p110β/p85α (Homo sapiens)) for entry C[C@@H](Nc1nc(N)ncc1C#N)c1cc2ncc(Cl)n2c(=O)n1-c1ccccc1 = 24.7%

Field PI3Kβ IH % @ 1 uM (system: p110β/p85α (Homo sapiens)) for entry CC(=O)c1c[nH]c2ncnc(N3CCC[C@H]3c3nn4ccc(Cl)c4c(=O)n3-c3ccccc3)c12 = 88.3%

PI3Kβ IH % @ 1 uM on p110β/p85α (Homo sapiens) for N#Cc1c[nH]c2ncnc(N3CC[C@H]3c3nn4ccc(Cl)c4c(=O)n3Cc3cccnc3)c12 is 7.9%

====

- target under test: p110δ/p85α (Homo sapiens, UniProt O00329)
- Sequence (O00329 whole entry): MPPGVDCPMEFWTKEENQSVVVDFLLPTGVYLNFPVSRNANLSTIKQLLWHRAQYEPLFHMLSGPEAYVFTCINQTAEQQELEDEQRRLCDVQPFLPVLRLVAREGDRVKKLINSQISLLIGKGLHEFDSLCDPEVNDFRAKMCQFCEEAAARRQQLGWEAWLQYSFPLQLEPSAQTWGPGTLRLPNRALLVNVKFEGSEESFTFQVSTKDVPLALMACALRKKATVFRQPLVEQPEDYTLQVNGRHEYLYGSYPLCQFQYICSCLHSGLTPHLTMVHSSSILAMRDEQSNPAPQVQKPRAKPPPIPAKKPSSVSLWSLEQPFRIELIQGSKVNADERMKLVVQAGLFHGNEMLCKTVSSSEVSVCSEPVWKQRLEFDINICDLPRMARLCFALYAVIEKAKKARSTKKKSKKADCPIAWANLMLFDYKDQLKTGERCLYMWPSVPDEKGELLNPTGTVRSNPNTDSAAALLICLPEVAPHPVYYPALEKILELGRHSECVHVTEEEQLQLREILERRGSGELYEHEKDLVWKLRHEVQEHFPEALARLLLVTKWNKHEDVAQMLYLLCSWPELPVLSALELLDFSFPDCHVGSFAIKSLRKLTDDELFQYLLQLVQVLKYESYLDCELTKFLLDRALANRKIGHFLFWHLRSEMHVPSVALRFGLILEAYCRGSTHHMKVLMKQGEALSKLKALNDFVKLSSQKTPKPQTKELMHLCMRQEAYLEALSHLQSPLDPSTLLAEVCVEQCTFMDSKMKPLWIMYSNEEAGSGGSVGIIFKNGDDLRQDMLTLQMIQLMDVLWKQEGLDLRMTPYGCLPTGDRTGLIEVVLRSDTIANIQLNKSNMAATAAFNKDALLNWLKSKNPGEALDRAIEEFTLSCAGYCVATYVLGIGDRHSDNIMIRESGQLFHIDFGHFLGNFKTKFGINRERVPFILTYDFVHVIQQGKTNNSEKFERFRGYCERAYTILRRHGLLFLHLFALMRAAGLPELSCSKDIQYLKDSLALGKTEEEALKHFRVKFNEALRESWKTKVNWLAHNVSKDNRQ
- Sequence (P27986 whole entry partner): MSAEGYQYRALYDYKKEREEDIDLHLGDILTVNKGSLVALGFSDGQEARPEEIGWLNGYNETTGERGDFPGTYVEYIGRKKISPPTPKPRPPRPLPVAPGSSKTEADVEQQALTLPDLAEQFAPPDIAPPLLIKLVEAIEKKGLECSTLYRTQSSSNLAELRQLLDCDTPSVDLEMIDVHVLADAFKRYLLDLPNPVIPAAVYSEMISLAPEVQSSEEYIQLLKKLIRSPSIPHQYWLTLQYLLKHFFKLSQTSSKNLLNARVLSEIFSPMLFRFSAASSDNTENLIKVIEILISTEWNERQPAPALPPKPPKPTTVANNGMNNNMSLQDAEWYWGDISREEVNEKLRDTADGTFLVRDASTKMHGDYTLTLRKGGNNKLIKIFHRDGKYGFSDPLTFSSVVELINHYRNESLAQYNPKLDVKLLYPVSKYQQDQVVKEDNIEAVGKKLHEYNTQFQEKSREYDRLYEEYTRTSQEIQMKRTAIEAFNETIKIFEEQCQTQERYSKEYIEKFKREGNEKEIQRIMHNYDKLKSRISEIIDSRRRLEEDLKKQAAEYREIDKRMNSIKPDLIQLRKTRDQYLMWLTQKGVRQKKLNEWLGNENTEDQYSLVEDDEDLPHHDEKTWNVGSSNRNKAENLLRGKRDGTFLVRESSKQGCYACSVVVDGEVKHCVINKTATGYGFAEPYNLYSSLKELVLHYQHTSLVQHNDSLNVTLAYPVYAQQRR
- test name: Transcreener KINASE Assay, kinase inhibition of p110δ/p85α
- Type: biochemical
- assay setup: 1 uM test compound
I would appreciate it if you labelled entries MET when PI3Kδ IH % @ 1 uM is 90% or higher, otherwise NOT MET.

These solved cases illustrate the format of a correct answer.
CNC(=O)c1c[nH]c2ncnc(N3CCC[C@H]3c3nn4ccc(Cl)c4c(=O)n3-c3ccccc3)c12 ... MET
N#Cc1c[nH]c2ncnc(N3C[C@@H](F)C[C@H]3c3nn4ccc(Cl)c4c(=O)n3-c3ccccc3)c12 ... MET
Cc1nc(N)nc(N2C[C@H](C)C2c2nn3ccc(Cl)c3c(=O)n2-c2ccccc2)c1C#N (stereo partly shown) ... MET
N#Cc1c(N)ncnc1N1CC[C@H]1c1nn2cccc2c(=O)n1-c1ccccc1 ... NOT MET
CC(=O)c1c[nH]c2ncnc(N3CCC[C@H]3c3nn4ccc(Cl)c4c(=O)n3-c3ccccc3)c12 ... MET

// inclusive: PI3Kδ IH % @ 1 uM at least 90%? input: O=c1c2c(Cl)ccn2nc([C@@H]2CCN2c2ncnc3[nH]cc(F)c23)n1-c1ccccc1
NOT MET

Does the reported PI3Kδ IH % @ 1 uM for COCCNC(=O)c1c[nH]c2ncnc(N3CC[C@H]3c3nn4ccc(Cl)c4c(=O)n3-c3ccccc3)c12 fall at or above the 90% mark?
NOT MET

====

PI3Kβ IH % @ 1 uM: recorded values
- target under test: p110β/p85α (Homo sapiens, UniProt P42338)
- Sequence (P42338 whole entry): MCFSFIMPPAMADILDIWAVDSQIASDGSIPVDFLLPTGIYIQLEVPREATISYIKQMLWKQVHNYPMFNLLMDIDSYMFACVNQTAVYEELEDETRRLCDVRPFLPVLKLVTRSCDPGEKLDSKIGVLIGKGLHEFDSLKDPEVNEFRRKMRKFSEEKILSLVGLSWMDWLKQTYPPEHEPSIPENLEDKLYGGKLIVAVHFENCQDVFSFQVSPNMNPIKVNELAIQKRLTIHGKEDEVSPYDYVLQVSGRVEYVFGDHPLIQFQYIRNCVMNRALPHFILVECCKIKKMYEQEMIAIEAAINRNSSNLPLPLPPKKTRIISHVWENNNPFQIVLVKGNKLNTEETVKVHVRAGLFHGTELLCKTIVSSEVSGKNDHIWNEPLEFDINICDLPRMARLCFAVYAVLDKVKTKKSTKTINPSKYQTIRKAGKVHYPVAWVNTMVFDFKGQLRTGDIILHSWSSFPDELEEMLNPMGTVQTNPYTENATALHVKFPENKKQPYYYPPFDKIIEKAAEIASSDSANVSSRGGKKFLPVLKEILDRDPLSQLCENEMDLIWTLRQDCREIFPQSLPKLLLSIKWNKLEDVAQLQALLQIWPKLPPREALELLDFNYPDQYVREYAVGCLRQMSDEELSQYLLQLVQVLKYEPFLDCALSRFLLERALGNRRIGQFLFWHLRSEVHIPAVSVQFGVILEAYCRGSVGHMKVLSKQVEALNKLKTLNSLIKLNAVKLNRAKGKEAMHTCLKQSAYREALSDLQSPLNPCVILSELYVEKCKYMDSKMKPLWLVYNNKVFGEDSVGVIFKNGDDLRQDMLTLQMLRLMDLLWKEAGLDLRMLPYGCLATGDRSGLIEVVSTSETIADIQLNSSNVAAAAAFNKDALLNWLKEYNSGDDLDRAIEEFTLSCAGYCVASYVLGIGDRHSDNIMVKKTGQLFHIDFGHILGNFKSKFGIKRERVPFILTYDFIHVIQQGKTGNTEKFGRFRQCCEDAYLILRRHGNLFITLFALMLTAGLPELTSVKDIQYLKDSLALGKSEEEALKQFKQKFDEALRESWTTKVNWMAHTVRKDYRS
- Sequence (P27986 2-724 partner): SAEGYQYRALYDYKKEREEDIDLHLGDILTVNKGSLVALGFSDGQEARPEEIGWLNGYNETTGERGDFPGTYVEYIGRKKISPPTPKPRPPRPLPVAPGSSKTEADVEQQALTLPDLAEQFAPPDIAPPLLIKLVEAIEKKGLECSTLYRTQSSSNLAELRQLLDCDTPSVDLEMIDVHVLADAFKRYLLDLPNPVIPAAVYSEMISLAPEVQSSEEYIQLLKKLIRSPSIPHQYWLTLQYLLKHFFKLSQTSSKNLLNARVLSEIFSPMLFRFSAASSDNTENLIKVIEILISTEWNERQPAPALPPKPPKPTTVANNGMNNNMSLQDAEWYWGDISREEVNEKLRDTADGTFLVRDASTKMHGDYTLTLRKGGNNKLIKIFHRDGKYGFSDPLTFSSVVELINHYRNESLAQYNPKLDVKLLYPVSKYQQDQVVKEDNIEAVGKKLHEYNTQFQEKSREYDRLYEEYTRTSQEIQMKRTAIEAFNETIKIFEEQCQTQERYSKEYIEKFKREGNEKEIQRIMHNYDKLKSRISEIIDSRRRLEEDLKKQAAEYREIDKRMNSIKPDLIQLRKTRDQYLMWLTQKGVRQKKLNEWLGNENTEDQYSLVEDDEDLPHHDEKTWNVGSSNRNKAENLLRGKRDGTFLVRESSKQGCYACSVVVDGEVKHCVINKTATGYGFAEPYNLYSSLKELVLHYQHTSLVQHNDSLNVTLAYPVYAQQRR
- test name: Transcreener KINASE Assay, kinase inhibition of p110β/p85α
- Type: biochemical
- assay setup: 1 uM test compound
Express it in %; write the number only.

Some compounds with recorded PI3Kβ IH % @ 1 uM:
C[S@@+]([O-])c1c[nH]c2ncnc(N3CCC[C@H]3c3nn4ccc(F)c4c(=O)n3-c3ccccc3)c12 [Compound 397] ... 52.0
Nc1ccc(-c2n[nH]c3ncnc(N4CC[C@H]4c4nn5ccc(Cl)c5c(=O)n4-c4ccccc4)c23)cn1 [Compound 169] ... −21.1
N#Cc1c[nH]c2ncnc(N3CCOCC3c3nn4ccc(Cl)c4c(=O)n3-c3ccccc3)c12 (centres unmarked) [Compound 152] ... 54.4
Cc1nc(N)nc(N2CC[C@H]2c2nn3ccc(C#N)c3c(=O)n2-c2ccccc2)c1C#N [Compound 497] ... 67.6
CC(=O)c1cnc(N)nc1NC(C)c1cn2ccc(Cl)c2c(=O)n1-c1cccc(F)c1 (centres unmarked) [Compound 435] ... 91.2
CCC(Nc1ncnc(N)c1C#N)c1cn2ccc(Cl)c2c(=O)n1-c1cccc(F)c1 (centres unmarked) [Compound 86] ... 86.5

Reported PI3Kβ IH % @ 1 uM of CC(Nc1ncnc2[nH]cnc12)c1cn2cccc2c(=O)n1-c1ccccc1 (centres unmarked) [Compound 83] : 42.7

Just so you know, measured PI3Kβ IH % @ 1 uM for N#Cc1c[nH]c2ncnc(N3CC[C@H]3c3nn4ccc(Cl)c4c(=O)n3CC(F)F)c12 [Compound 59] came out at 34.7
